Data provenance: PubChem BioAssay AID449750

assay: non-covalent RecA intein splicing inhibitors, dose response, biochemical, cell-free, fluorescence, secondary screen (AID 449750)
The source made the active and inactive calls. The rule behind the calls is not given here.
Just give me one of these, please: active, inactive

Examples with answers:
> print(dat)
                                   compound  class.assignment
1  CC1CCCC(NC(=O)NC(=O)CCl)C1C (stereo unspecified)            active
2  O=C(c1cccc(C(F)(F)F)c1)C1CCCN(Cc2ncc[nH]2)C1 (stereo unspecified)          inactive
3  CS/C(=C\[N+](=O)[O-])Nc1ccc(OC(F)(F)F)cc1          inactive

Hi, do you know how `CCCc1c(-c2ccc(O)cc2)nn(-c2ccc(O)cc2)c1-c1ccc(O)cc1` came out in this test? active
